Recorded IC50 values for a group of compounds are listed next.
- assay system: CaV2.2 (Homo sapiens, UniProt Q00975)
- Construct: expressed in transfected cells; host or cells: HEK293
- Sequence (Q00975 whole entry): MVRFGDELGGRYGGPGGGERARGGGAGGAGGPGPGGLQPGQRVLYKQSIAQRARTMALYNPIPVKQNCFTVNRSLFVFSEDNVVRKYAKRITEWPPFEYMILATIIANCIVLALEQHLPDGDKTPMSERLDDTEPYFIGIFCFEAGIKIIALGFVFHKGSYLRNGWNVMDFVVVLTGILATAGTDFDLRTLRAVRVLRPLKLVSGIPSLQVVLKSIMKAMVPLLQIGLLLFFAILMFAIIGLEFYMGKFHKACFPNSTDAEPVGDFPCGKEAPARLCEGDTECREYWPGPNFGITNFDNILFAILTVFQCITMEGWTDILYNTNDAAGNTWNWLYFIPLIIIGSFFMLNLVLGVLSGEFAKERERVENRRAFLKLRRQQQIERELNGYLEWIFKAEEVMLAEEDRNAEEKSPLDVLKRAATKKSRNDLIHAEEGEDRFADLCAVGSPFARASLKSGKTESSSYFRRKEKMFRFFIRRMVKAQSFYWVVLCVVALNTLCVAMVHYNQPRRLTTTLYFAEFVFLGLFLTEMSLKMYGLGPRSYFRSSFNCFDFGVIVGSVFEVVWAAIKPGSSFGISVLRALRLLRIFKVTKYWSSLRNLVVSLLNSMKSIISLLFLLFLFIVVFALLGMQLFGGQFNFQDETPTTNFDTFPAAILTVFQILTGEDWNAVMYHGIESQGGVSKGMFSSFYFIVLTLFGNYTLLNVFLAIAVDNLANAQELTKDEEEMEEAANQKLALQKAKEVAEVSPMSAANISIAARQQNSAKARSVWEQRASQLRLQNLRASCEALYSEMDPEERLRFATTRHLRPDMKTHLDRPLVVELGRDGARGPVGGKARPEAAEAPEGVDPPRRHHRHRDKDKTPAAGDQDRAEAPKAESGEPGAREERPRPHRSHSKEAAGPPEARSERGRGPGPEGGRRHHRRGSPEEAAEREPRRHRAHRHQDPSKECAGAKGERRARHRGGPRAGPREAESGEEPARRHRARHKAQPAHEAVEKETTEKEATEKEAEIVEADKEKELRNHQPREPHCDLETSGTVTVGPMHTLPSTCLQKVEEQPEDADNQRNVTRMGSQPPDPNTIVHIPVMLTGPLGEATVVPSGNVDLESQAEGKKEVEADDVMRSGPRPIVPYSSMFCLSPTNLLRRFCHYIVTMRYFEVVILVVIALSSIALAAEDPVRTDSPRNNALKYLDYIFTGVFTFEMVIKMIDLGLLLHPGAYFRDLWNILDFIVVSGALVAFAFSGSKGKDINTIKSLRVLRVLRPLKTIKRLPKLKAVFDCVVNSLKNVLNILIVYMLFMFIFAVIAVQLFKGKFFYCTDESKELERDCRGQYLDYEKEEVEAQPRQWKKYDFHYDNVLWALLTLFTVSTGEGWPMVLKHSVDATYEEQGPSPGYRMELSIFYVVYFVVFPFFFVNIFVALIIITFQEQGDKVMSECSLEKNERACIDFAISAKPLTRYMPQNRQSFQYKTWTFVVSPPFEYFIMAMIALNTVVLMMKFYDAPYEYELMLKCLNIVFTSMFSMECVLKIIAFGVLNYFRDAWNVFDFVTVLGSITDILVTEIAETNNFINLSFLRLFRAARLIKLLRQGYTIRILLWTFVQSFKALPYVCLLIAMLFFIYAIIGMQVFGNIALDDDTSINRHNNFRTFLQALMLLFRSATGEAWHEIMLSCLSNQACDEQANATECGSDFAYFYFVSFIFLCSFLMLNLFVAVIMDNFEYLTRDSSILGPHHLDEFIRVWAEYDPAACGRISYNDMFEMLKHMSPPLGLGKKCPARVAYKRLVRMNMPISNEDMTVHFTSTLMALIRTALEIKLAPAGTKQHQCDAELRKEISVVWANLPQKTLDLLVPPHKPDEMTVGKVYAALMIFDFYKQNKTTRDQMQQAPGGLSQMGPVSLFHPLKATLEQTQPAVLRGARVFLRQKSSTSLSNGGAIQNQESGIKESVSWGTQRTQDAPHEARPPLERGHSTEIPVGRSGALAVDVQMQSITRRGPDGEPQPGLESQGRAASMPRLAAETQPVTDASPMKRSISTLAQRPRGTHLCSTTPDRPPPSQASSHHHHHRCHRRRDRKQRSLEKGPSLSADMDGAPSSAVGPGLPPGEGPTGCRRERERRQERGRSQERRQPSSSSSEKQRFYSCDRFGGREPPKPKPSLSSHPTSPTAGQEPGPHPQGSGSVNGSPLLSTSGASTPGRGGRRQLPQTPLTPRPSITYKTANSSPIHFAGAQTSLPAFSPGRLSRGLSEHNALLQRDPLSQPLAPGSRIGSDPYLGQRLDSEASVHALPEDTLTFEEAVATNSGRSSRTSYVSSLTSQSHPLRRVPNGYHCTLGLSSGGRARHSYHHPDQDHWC
- Sequence (P54284 whole entry partner): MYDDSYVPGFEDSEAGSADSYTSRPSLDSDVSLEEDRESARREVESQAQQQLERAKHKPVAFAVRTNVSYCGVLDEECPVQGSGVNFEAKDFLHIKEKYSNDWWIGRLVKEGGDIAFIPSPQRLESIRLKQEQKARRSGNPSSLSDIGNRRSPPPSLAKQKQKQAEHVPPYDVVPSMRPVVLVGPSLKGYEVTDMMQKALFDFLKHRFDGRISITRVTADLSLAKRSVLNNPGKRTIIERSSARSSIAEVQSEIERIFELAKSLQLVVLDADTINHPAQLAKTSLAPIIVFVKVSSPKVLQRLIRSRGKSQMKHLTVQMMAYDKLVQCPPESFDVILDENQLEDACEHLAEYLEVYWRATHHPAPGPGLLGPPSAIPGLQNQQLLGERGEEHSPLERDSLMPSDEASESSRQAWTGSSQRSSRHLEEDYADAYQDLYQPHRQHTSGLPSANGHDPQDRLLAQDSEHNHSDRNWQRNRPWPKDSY
- Sequence (P54289 25-946 partner limits assumed): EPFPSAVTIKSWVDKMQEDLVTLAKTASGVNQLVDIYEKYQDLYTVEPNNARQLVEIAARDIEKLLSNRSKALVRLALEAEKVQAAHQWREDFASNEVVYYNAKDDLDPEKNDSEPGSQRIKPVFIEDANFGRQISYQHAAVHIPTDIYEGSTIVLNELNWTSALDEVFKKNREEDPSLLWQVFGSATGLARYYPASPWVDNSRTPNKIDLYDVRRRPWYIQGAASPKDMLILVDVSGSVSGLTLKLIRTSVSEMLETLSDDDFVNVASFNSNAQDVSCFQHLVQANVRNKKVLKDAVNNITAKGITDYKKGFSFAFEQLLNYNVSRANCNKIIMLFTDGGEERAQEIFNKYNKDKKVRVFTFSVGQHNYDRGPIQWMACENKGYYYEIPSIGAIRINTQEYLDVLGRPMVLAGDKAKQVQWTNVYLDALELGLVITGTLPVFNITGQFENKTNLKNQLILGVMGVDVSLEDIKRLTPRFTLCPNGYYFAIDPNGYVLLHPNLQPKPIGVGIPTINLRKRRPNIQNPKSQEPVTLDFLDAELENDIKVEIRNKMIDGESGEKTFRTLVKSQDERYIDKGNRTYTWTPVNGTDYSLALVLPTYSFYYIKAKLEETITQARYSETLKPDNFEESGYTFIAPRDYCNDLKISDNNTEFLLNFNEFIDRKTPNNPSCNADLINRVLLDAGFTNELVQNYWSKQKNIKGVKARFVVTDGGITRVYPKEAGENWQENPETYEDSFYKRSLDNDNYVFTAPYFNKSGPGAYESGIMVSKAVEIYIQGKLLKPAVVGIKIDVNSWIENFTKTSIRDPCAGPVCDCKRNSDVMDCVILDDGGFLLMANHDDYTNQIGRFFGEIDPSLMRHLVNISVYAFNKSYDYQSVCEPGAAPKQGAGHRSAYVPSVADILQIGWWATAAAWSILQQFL
- Sequence (P54289 947-1103 partner limits assumed): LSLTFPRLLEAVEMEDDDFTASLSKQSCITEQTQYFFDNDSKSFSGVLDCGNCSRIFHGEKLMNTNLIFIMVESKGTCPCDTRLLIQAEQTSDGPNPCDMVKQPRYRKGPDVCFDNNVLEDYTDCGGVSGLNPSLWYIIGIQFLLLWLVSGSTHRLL
- test details: VIPR optical membrane potential assay with electrical stimulation
- Assay type: cell-based
- measurement setup: Table 3, biological assay data; read-out: IC50

| compound | IC50 |
| --- | --- |
| Cc1c(C(=O)N2CCCCC2)[nH]c2ccc(S(=O)(=O)N3CCC(C)CC3)cc12 [compound 74] | < 5 µM |
| Cc1c(C(=O)N2CCCCC2C)[nH]c2ccc(S(=O)(=O)N3CCC(C)CC3)cc12 (centres unmarked) [compound 239] | 5 to 20 µM |
| CC1CCN(S(=O)(=O)c2ccc3oc(C(=O)N4CC(C)CC(C)C4)cc3c2)CC1 (centres unmarked) [compound 293] | < 5 µM |
| CN1CCN(C(=O)c2cc3cc(S(=O)(=O)N4CCCCCC4)ccc3[nH]2)CC1 [compound 220] | 5 to 20 µM |

// switching to the query compound
CC1CCN(S(=O)(=O)c2ccc3oc(C(=O)NC4CCCC4)cc3c2)CC1 [compound 119] on CaV2.2 (Homo sapiens, UniProt Q00975) gives IC50 = < 5 µM
